B1: ALKBH7 (parent)
chain: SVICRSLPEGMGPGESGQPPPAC

Variants of: B1
ASSAY_INFO: protein stability index of a GFP-peptide fusion (GPS, HEK-293T) (PSI 1-6); higher = more stable;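 note: lentivirally expressed fusions sorted by FACS into six bins by GFP to DsRed ratio, PSI derived from sequencing read proportions per bin multiplied by bin number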
TEST_SETTINGS: c terminus: native
RECORDED_METRIC: protein stability index

| MUTATION_NOTATION | RECORDED_METRIC | DATA_VALUE |
| --- | --- | --- |
| P21L | protein stability index | 1.28 |
| G14A | protein stability index | 2.37 |
| C4V | protein stability index | 1.63 |
| G12F | protein stability index | 1.54 |
| Q18D | protein stability index | 2.05 |
| M11R | protein stability index | 2.29 |
| P19V | protein stability index | 4.2 |
| E9F | protein stability index | 1.86 |
| P13V | protein stability index | 1.4 |
| E9W | protein stability index | 1.68 |
| M11W | protein stability index | 1 |
| E15G | protein stability index | 1.82 |
| P13E | protein stability index | 1.92 |
| P19T | protein stability index | 1.95 |
| S16R | protein stability index | 2.12 |
| G10A | protein stability index | 2.59 |
| L7Q | protein stability index | 2.67 |
| V2G | protein stability index | 2.08 |
| P20G | protein stability index | 4.91 |
| P13H | protein stability index | 2.18 |
| C4N | protein stability index | 2.24 |
| G17E | protein stability index | 2.45 |
| P20F | protein stability index | 2.45 |
| C4K | protein stability index | 1.37 |
| E15M | protein stability index | 2.4 |
| I3L | protein stability index | 1.6 |
| I3K | protein stability index | 1.65 |
| S1N | protein stability index | 1.63 |
| E15L | protein stability index | 1.02 |
| C23W | protein stability index | 4.15 |
| R5F | protein stability index | 1.51 |
| G14T | protein stability index | 1.77 |
| G17L | protein stability index | 2.14 |
| P20M | protein stability index | 1.79 |
| V2P | protein stability index | 2.31 |
| R5Y | protein stability index | 1.46 |
| Q18A | protein stability index | 2.15 |
| G10F | protein stability index | 1.89 |
| G17C | protein stability index | 1.73 |
| C4F | protein stability index | 1.61 |
| C4T | protein stability index | 1.62 |
| A22Q | protein stability index | 4.92 |
| V2N | protein stability index | 2.41 |
| M11D | protein stability index | 4.2 |
| A22Y | protein stability index | 4.68 |
| P20S | protein stability index | 3.75 |
| L7C | protein stability index | 2.05 |
| V2K | protein stability index | 2.14 |
| G14C | protein stability index | 1.52 |
| E15P | protein stability index | 1.73 |
| E9S | protein stability index | 1.5 |
| P19R | protein stability index | 2.69 |
| V2E | protein stability index | 2.4 |
| S16Q | protein stability index | 1.8 |
| Q18Y | protein stability index | 3.38 |
| R5E | protein stability index | 2.46 |
| S6H | protein stability index | 2.71 |
| P19N | protein stability index | 4.27 |
| I3R | protein stability index | 2.64 |
| G17Y | protein stability index | 1.09 |
| P19E | protein stability index | 5.1 |
| Q18L | protein stability index | 2.07 |
| M11N | protein stability index | 2.81 |
| M11Y | protein stability index | 2.52 |
| P19C | protein stability index | 3.13 |
| P21V | protein stability index | 3.21 |
| G12N | protein stability index | 2.09 |
| S1D | protein stability index | 1.87 |
| S16F | protein stability index | 2.37 |
| S1T | protein stability index | 2.2 |
| E9I | protein stability index | 1.99 |
| P20E | protein stability index | 3.55 |
| G14K | protein stability index | 1.58 |
| P21I | protein stability index | 2.5 |
| P8S | protein stability index | 2.32 |
| Q18I | protein stability index | 2.56 |
| S16D | protein stability index | 2.2 |
| G10Y | protein stability index | 1.91 |
| I3M | protein stability index | 1.43 |
| P20N | protein stability index | 4.14 |
| P8M | protein stability index | 2.93 |
| C4R | protein stability index | 1.72 |
| R5D | protein stability index | 2.56 |
| P20K | protein stability index | 4.38 |
| P19Y | protein stability index | 2.33 |
| S16K | protein stability index | 2.28 |
| Q18E | protein stability index | 2.15 |
| S16Y | protein stability index | 1.95 |
| C23L | protein stability index | 4.69 |
| A22E | protein stability index | 4.63 |
| S6P | protein stability index | 2.05 |
